# target_or_test_system: Aiolos (Homo sapiens, UniProt Q96SW2+Q9UKT9)
# Construct: endogenous in cells; host or cells: human PBMCs (CD20+CD3- B cells, CD3+CD20- T cells)
# Sequence (Q9UKT9 whole entry): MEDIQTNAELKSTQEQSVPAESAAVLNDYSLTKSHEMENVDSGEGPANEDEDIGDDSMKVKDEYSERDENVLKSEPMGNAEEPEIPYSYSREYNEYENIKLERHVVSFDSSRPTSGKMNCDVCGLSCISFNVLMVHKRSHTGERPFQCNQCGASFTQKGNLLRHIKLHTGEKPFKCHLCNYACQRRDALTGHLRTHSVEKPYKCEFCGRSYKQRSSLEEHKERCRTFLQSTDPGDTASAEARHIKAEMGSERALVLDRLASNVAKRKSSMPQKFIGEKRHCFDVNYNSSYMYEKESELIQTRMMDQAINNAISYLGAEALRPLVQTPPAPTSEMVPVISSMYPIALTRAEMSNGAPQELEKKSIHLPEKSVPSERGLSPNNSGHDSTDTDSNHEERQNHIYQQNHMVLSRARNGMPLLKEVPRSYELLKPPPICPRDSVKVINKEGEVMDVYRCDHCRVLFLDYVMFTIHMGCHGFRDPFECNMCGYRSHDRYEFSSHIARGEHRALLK
# Sequence (Q96SW2 whole entry): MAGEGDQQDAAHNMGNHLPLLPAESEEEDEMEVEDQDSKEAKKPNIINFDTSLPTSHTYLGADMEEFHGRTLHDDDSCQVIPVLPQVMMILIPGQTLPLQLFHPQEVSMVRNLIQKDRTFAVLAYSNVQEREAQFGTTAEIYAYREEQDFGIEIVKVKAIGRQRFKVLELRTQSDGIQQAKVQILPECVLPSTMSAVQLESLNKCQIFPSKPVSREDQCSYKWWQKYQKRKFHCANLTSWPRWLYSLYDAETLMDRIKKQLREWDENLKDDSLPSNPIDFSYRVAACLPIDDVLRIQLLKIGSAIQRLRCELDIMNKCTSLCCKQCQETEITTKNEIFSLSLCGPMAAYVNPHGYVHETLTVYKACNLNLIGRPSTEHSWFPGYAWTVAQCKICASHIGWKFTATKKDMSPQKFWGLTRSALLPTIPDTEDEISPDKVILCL
# Sequence (Q16531 whole entry partner): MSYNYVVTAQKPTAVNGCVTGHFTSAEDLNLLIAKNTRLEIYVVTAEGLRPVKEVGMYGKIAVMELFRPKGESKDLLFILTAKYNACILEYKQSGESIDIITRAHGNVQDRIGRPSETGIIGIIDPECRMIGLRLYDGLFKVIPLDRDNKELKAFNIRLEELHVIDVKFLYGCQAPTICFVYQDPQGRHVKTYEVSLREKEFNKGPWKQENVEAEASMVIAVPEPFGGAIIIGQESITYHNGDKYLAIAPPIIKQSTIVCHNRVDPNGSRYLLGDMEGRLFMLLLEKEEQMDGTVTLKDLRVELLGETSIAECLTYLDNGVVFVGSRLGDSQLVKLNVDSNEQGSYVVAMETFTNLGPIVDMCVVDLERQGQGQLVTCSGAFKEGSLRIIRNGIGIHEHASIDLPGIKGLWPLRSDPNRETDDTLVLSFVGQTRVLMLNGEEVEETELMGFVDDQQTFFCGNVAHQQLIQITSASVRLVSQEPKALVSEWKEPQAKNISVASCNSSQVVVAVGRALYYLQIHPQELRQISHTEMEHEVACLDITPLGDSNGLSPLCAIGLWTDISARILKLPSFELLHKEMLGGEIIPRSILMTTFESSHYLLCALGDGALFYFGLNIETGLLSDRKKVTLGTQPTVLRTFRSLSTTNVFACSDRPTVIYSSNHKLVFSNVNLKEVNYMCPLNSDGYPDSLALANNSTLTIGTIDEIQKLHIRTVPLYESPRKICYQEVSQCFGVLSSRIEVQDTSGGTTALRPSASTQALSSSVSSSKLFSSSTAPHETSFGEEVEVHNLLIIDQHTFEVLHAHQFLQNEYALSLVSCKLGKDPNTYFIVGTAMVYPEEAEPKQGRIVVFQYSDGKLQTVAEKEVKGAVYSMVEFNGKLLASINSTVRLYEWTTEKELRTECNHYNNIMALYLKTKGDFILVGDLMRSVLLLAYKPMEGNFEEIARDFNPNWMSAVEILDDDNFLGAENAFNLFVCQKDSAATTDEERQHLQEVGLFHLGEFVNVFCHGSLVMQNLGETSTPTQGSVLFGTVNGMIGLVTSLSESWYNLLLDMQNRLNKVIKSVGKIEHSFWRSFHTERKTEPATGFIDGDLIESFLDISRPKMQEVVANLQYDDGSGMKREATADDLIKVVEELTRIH
# measurement_notes: Aiolos degradation in human PBMCs, flow cytometry (IMiD activity)
# Type: cell-based
# protocol_conditions: 24 hours, read-out: Dmax (maximum percent Aiolos degradation)
measured_property: Dmax (%)

NC(=O)c1ncc(N2CCCCC2)nc1Nc1ccc2c(c1)CCN(C[C@H]1CCN(c3ccc4c(c3)C(=O)N(C3CCC(=O)NC3=O)C4=O)C1)C2 (stereo partly drawn); 77.4
CN1CCN([C@@H]2CCCN(c3cnc(C(N)=O)c(Nc4ccc(N5CCN(CCCCc6cccc7c6CN(C6CCC(=O)NC6=O)C7=O)CC5)cc4)n3)C2)C1=O (stereo partly drawn); 81.6
CN1CCN([C@@H]2CCCN(c3cnc(C(N)=O)c(Nc4ccc(C5CCN(C(=O)CCOCCNc6cccc7c6C(=O)N(C6CCC(=O)NC6=O)C7=O)CC5)cc4)n3)C2)C1=O (stereo partly drawn); 98.6

###

# target_or_test_system: Aiolos (Homo sapiens, UniProt Q96SW2+Q9UKT9)
# Construct: endogenous in cells; host or cells: human PBMCs (CD20+CD3- B cells, CD3+CD20- T cells)
# measurement_notes: Aiolos degradation in human PBMCs, flow cytometry (IMiD activity)
# Assay type: cell-based
# protocol_conditions: 24 hours, read-out: Dmax (maximum percent Aiolos degradation)
measured_property: Dmax (%)

CN1CCN([C@@H]2CCCN(c3cnc(C(N)=O)c(Nc4ccc(OCCCNc5ccc6c(c5)C(=O)N(C5CCC(=O)NC5=O)C6=O)cc4)n3)C2)C1=O (some centres unmarked); 95.7
CN1CCN([C@@H]2CCCN(c3cnc(C(N)=O)c(Nc4ccc(C5CCN(C[C@H]6CCN(c7ccc8c(c7)C(=O)N(C7CCC(=O)NC7=O)C8=O)C6)CC5)cc4)n3)C2)C1=O (some centres unmarked); 73.9
NC(=O)c1ncc(N2CCCCC2)nc1Nc1ccc2c(c1)CCN(C1CN(c3ccc4c(c3)C(=O)N(C3CCC(=O)NC3=O)C4=O)C1)C2 (racemic); 94.7
CN1CCN([C@@H]2CCCN(c3cnc(C(N)=O)c(Nc4ccc5c(c4)CCN(C4CN(c6ccc7c(c6)C(=O)N(C6CCC(=O)NC6=O)C7=O)C4)C5)n3)C2)C1=O (some centres unmarked); 98.4
CN1CCN([C@@H]2CCCN(c3cnc(C(N)=O)c(Nc4ccc5c(c4)CCN(CC4CCN(c6ccc7c(c6)C(=O)N(C6CCC(=O)NC6=O)C7=O)CC4)C5)n3)C2)C1=O (some centres unmarked); 86.5

###

# target_or_test_system: Aiolos (Homo sapiens, UniProt Q96SW2+Q9UKT9)
# Construct: endogenous in cells; host or cells: human PBMCs (CD20+CD3- B cells, CD3+CD20- T cells)
# measurement_notes: Aiolos degradation in human PBMCs, flow cytometry (IMiD activity)
# Type: cell-based
# protocol_conditions: 24 hours, Aiolos degradation
measured_property: DC50 (µM)

CN1CCN([C@@H]2CCCN(c3cnc(C(N)=O)c(Nc4ccc5c(c4)CCN(CC4CCN(c6ccc7c(c6)C(=O)N(C6CCC(=O)NC6=O)C7=O)CC4)C5)n3)C2)C1=O (stereo partly drawn); 0.012

(P) CN1CCN([C@@H]2CCCN(c3cnc(C(N)=O)c(Nc4ccc(N5CCN(CCCCc6cccc7c6CN(C6CCC(=O)NC6=O)C7=O)CC5)cc4)n3)C2)C1=O (stereo partly drawn)
(Q) NC(=O)c1ncc(N2CCCCC2)nc1Nc1ccc2c(c1)CCN(C[C@H]1CCN(c3ccc4c(c3)C(=O)N(C3CCC(=O)NC3=O)C4=O)C1)C2 (stereo partly drawn)
Q. I'd appreciate it if you could identify which of P and Q has the greater DC50. Write the label of whichever entry you select.
A. Q
(Q: 0.027 µM, P: 0.009 µM)

###

# target_or_test_system: Aiolos (Homo sapiens, UniProt Q96SW2+Q9UKT9)
# Construct: endogenous in cells; host or cells: human PBMCs (CD20+CD3- B cells, CD3+CD20- T cells)
# measurement_notes: Aiolos degradation in human PBMCs, flow cytometry (IMiD activity)
# Type: cell-based
# protocol_conditions: 24 hours, read-out: Dmax (maximum percent Aiolos degradation)
measured_property: Dmax (%)

CN1CCN([C@@H]2CCCN(c3cnc(C(N)=O)c(Nc4ccc(N5CCN(C[C@@H]6[C@H]7CN(c8ccc9c(c8)C(=O)N(C8CCC(=O)NC8=O)C9=O)C[C@@H]67)CC5)cc4)n3)C2)C1=O (stereo partly drawn); 65.1
CN1CCN([C@H]2CCCN(c3cnc(C(N)=O)c(Nc4cnn(C5CCN(CC6CN(c7ccc8c(c7)C(=O)N(C7CCC(=O)NC7=O)C8=O)C6)CC5)c4)n3)C2)C1=O (stereo partly drawn); 70.8
CN1CCN([C@@H]2CCCN(c3cnc(C(N)=O)c(Nc4ccc(C5CCN(C6CN(c7ccc8c(c7)C(=O)N(C7CCC(=O)NC7=O)C8=O)C6)CC5)cc4)n3)C2)C1=O (stereo partly drawn); 74.7

###

# target_or_test_system: Aiolos (Homo sapiens, UniProt Q96SW2+Q9UKT9)
# Construct: endogenous in cells; host or cells: human PBMCs (CD20+CD3- B cells, CD3+CD20- T cells)
# measurement_notes: Aiolos degradation in human PBMCs, flow cytometry (IMiD activity)
# Assay type: cell-based
# protocol_conditions: 24 hours, Aiolos degradation
measured_property: DC50 (nM)

(I) NC(=O)c1ncc(N2CCCCC2)nc1Nc1ccc2c(c1)CCN(C1CN(c3ccc4c(c3)C(=O)N(C3CCC(=O)NC3=O)C4=O)C1)C2 (racemic)
(II) CN1CCN([C@@H]2CCCN(c3cnc(C(N)=O)c(Nc4ccc(C5CCN(C(=O)CCOCCNc6cccc7c6C(=O)N(C6CCC(=O)NC6=O)C7=O)CC5)cc4)n3)C2)C1=O (some centres unmarked)
Q. Kindly identify the item with the lower DC50 figure among these two: I and II Write the label of whichever entry you select.
A. II
(II: 1 nM, I: 5.2 nM)

###

# target_or_test_system: Aiolos (Homo sapiens, UniProt Q96SW2+Q9UKT9)
# Construct: endogenous in cells; host or cells: human PBMCs (CD20+CD3- B cells, CD3+CD20- T cells)
# measurement_notes: Aiolos degradation in human PBMCs, flow cytometry (IMiD activity)
# Format: cell-based
# protocol_conditions: 24 hours, read-out: Dmax (maximum percent Aiolos degradation)
measured_property: Dmax (%)

CN1CCN([C@@H]2CCCN(c3cnc(C(N)=O)c(Nc4ccc(C5CCN(C[C@H]6CC[C@H](Nc7cccc8c7C(=O)N(C7CCC(=O)NC7=O)C8=O)CC6)CC5)cc4)n3)C2)C1=O (stereo partly drawn) [Compound 3]; 84.9
CN1CCN([C@H]2CCCN(c3cnc(C(N)=O)c(Nc4ccc5c(c4)CCN(CC4CN(c6ccc7c(c6)C(=O)N(C6CCC(=O)NC6=O)C7=O)C4)C5)n3)C2)C1=O (stereo partly drawn) [Compound 7]; 98.2
NC(=O)c1ncc(N2CCCCC2)nc1Nc1ccc(C2CCN(C[C@@H]3CCN(c4ccc5c(c4)C(=O)N(C4CCC(=O)NC4=O)C5=O)C3)CC2)cc1 (stereo partly drawn) [Compound 5]; 89.1

###

# target_or_test_system: Aiolos (Homo sapiens, UniProt Q96SW2+Q9UKT9)
# Construct: endogenous in cells; host or cells: human PBMCs (CD20+CD3- B cells, CD3+CD20- T cells)
# measurement_notes: Aiolos degradation in human PBMCs, flow cytometry (IMiD activity)
# Assay type: cell-based
# protocol_conditions: 24 hours, read-out: Dmax (maximum percent Aiolos degradation)
measured_property: Dmax (%)

CN1CCN([C@@H]2CCCN(c3cnc(C(N)=O)c(Nc4ccc(C5CCN(CC6CCN(c7ccc8c(c7)C(=O)N(C7CCC(=O)NC7=O)C8=O)CC6)CC5)cc4)n3)C2)C1=O (some centres unmarked); 74
CN1CCN([C@@H]2CCCN(c3cnc(C(N)=O)c(Nc4ccc(C5CCN(CCCNc6cccc7c6C(=O)N(C6CCC(=O)NC6=O)C7=O)CC5)cc4)n3)C2)C1=O (some centres unmarked); 87

(1) CN1CCN([C@@H]2CCCN(c3cnc(C(N)=O)c(Nc4ccc(C5(C)CCN(C(=O)CCOCCC(=O)Nc6cccc7c6CN(C6CCC(=O)NC6=O)C7=O)CC5)cc4)n3)C2)C1=O (some centres unmarked)
(2) CN1CCN([C@@H]2CCCN(c3cnc(C(N)=O)c(Nc4ccc(N5CC6(C5)CN(c5ccc7c(c5)C(=O)N(C5CCC(=O)NC5=O)C7=O)C6)cc4)n3)C2)C1=O (some centres unmarked)
Q. I'd appreciate it if you could identify which of 1 and 2 has the greater Dmax. Write the label of whichever entry you select.
A. 2

###

# target_or_test_system: Aiolos (Homo sapiens, UniProt Q96SW2+Q9UKT9)
# Construct: endogenous in cells; host or cells: human PBMCs (CD20+CD3- B cells, CD3+CD20- T cells)
# measurement_notes: Aiolos degradation in human PBMCs, flow cytometry (IMiD activity)
# Format: cell-based
# protocol_conditions: 24 hours, Aiolos degradation
measured_property: DC50 (nM)

NC(=O)c1ncc(N2CCCCC2)nc1Nc1ccc(C2CCN(C[C@@H]3CCN(c4ccc5c(c4)C(=O)N(C4CCC(=O)NC4=O)C5=O)C3)CC2)cc1 (some centres unmarked); 22

(I) CN1CCN([C@@H]2CCCN(c3cnc(C(N)=O)c(Nc4ccc(N5CCN(C[C@@H]6[C@H]7CN(c8ccc9c(c8)C(=O)N(C8CCC(=O)NC8=O)C9=O)C[C@@H]67)CC5)cc4)n3)C2)C1=O (some centres unmarked)
(II) CN1CCN([C@@H]2CCCN(c3cnc(C(N)=O)c(Nc4ccc(C5CCN(C6CN(c7ccc8c(c7)C(=O)N(C7CCC(=O)NC7=O)C8=O)C6)CC5)cc4)n3)C2)C1=O (some centres unmarked)
(III) CN1CCN([C@@H]2CCCN(c3cnc(C(N)=O)c(Nc4ccc(C5CCN(C[C@H]6CCN(c7ccc8c(c7)C(=O)N(C7CCC(=O)NC7=O)C8=O)C6)CC5)cc4)n3)C2)C1=O (some centres unmarked)
(IV) CN1CCN([C@@H]2CCCN(c3cnc(C(N)=O)c(Nc4ccc(C5(C)CCN(C(=O)CCOCCC(=O)Nc6cccc7c6CN(C6CCC(=O)NC6=O)C7=O)CC5)cc4)n3)C2)C1=O (some centres unmarked)
Q. Hey, quick one: sort these by DC50, low to high? // ordering of labels required in reply
A. I, II, III, IV
